tested on: MDA-N; assay: NCI tumour cell line growth inhibition, 48 h
Activity calls are given as the source filed them. Cut-off read from the data, not from the text of the source: active = GI50 up to about 1.1 µM and inactive = higher.
The reply should be one of these categories: 1 for active, -1 for inactive

Sample answers from the record:
CCCC(=O)OCOC(=O)N(C)/N=N/c1ccc(C(=O)OCC)cc1 ... -1
CN1CCCC2C(c3ccccc3)C(C3=NCCCC3)C(c3ccccc3)CC21 (stereo not drawn) ... -1

Query string: What call does the record list for `CC(=O)/N=C1/N(/C=C2\C(=O)Oc3ccccc3C2=O)C(=O)/C(=C/c2ccc(OC(C)=O)cc2)N1C` ?
Result string: -1

Query string: Returns: the outcome recorded for `O=[N+]([O-])c1cc(-[n+]2cc([O-])on2)ccc1F` in this assay.
Result string: -1

Query string: Lab log entry: `C=C1CC/C=C(/C(=O)O)CC[C@H]2[C@@H]1CC2(C)C` — outcome as called in the assay?
Result string: -1

Query string: // return assay outcome for `CC(=O)Nc1cc(C(=O)Nc2cc(C(=O)Nc3cc(C(=O)Nc4cc(C(=O)Nc5cc(C(=O)NCCC(=O)NCCCN(C)C)n(C)c5)n(C)c4)n(C)c3)n(C)c2)n(C)c1`
Result string: -1

Query string: Hi, do you know how `O=S(=O)(O)c1ccc2cccc(/N=N\c3c(O)ccc4ccccc34)c2c1` came out in this test?
Result string: -1

Query string: // outcome(item) with item = `OC[C@H]1N[C@H](CO)[C@@H](O)[C@H]1O`
Result string: -1

* * *

Entries annotated with measured GI50
test system: CAKI-1; test: NCI tumour cell line growth inhibition, 48 h
Calls of active or inactive are those of the source. Rule as the data show it: active = GI50 up to about 1.1 µM and inactive = higher.

Example cases with answers are listed next.
O=[N+]([O-])c1ccc2c(c1)OCCOCCOc1ccc([N+](=O)[O-])cc1OCCOCCO2 ... > 100 µM (inactive)
COc1ccc(/C=N\O[Si](C)(C)C(C)(C)C)cc1O[Si](C)(C)C(C)(C)C ... 25.1 µM (inactive)
CCCCc1nc(C)oc1C(C)C ... > 100 µM (inactive)
Cc1ccc(/N=N/c2ccc(O)c(CN(C)C)c2)cc1 ... 21.5 µM (inactive)
CC(C)=CC(=O)OC1C2C(C)=CC(O)C(O)C2(C)C2C3(O)OCC24C(CC(=O)OC14)C(C)C3O (stereo unspecified) ... 2.93 µM (inactive)

Query string: Form field: GI50 recorded for CCOC(=O)C(/C(=N/NC(=O)OC)C(=O)Nc1ccc(C(C)=O)cc1)c1cnc2ccccc2n1 (stereo unspecified) with CAKI-1 (enter value)
Result string: > 100 µM (inactive)

Query string: Missing value: GI50, CAKI-1, entry `c1ccc2cc(CNCCCCNCCCNCc3ccc4ccccc4c3)ccc2c1` . Fill in?
Result string: 1.81 µM (inactive)

Query string: Requested read-out GI50, target or system CAKI-1, entry `O=C(Nc1ccccc1C(=O)O)/C(=C/c1ccccc1)NC(=O)c1ccccc1`
Result string: > 100 µM (inactive)

Query string: Notebook entry, CAKI-1 assay: GI50 of CC1OC(O)CC(OC(=O)c2ccccc2)C1OC(=O)c1ccccc1 (stereo unspecified) = ?
Result string: 23.3 µM (inactive)

Query string: Param readout = GI50; param system = CAKI-1; param query = COc1ccc(OC)c(Cc2cnc3nc(N)nc(N)c3c2C)c1 [PIRITREXIM ISETHIONATE] ; response: value
Result string: 0.0456 µM (active)
